experiment: chemical genetic growth profiling, strain panel (AID 1159580);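 also: tested at 20 µM; growth read once vehicle control cultures reached saturation at 30 °C; 1 = growth at the plate median or of vehicle wells; lower values mean less growth of the strain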; conditions: S. cerevisiae deletion strains, growth OD, locus YLR268W, strain sec22, active compounds read low
The campaign covered roughly 5,500 compounds. About 2,000 (36%) were called active. Inconclusive results (about 18%) are left out. Some of the results follow.
Sorting guide: entries reporting normalized growth beneath 1 go in the MET pile, the rest go in the NOT MET pile.

## Input For CC(CCc1ccccc1)NC(C)C(O)c1ccc(O)cc1 (centres undefined) , is the recorded normalized growth below the cut-off of 1?
## Output NOT MET

## Input For CCN(CC)CCCC(C)Nc1c2ccc(Cl)cc2nc2ccc(OC)cc12 (centres undefined) , is the recorded normalized growth below the cut-off of 1?
## Output MET

## Input For C[C@]12CC(=O)C3C(CC[C@@H]4C[C@H](O)CC[C@]34C)C1CC[C@]2(O)C(=O)CO (some centres undefined) , is the recorded normalized growth below the cut-off of 1?
## Output MET

## Input For `COC1=C(OC)C(=O)C(C/C=C(\C)CC/C=C(\C)CC/C=C(\C)CC/C=C(/C)CC/C=C(\C)CC/C=C(\C)CC/C=C(\C)CC/C=C(\C)CC/C=C(\C)CCC=C(C)C)=C(C)C1=O` , is the recorded normalized growth below the cut-off of 1?
## Output NOT MET

## Input For `CC(=O)c1c(O)c(C)c(O)c2c1oc1c(C(C)=O)c(O)c(C)c(O)c12` , is the recorded normalized growth below the cut-off of 1?
## Output MET

## Input For `CC(=O)OCC[N+](C)(C)C` , is the recorded normalized growth below the cut-off of 1?
## Output MET

## Input For CCCCCCCCNC(C)C(O)c1ccc(SC(C)C)cc1 (centres undefined) , is the recorded normalized growth below the cut-off of 1?
## Output MET

## Input For O=C(O)C1(O)C[C@@H](O)C(O)[C@H](O)C1 (some centres undefined) , is the recorded normalized growth below the cut-off of 1?
## Output NOT MET

## Input For `CCOC(=O)CCC(=O)O[C@H]1[C@H](O[C@@H]2[C@@H](C)[C@H](O[C@H]3C[C@@](C)(OC)[C@@H](O)[C@H](C)O3)[C@@H](C)C(=O)O[C@H](CC)[C@@](C)(O)[C@H](O)[C@@H](C)C(=O)[C@H](C)C[C@@]2(C)O)O[C@H](C)C[C@@H]1N(C)C` , is the recorded normalized growth below the cut-off of 1?
## Output MET

----------
experiment: chemical genetic growth profiling, strain panel (AID 1159580);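 also: tested at 20 µM; growth read once vehicle control cultures reached saturation at 30 °C; 1 = growth at the plate median or of vehicle wells; lower values mean less growth of the strain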; conditions: S. cerevisiae deletion strains, growth OD, locus YKL190W, strain CNB1, active compounds read low
Hit rate of the full screen: of about 5,500 compounds, about 2,000 (36%) were called active. About 18% were inconclusive and are not listed. The list shows a part of the results.
Field: normalized growth. Provide a value for each of the compounds that follow.

## Input Bench note: what normalized growth did ClC1=C(Cl)C2(Cl)C3C(Cl)C=CC3C1(Cl)C2(Cl)Cl (stereo unspecified) show?
## Output 0.989 (inactive)

## Input Bench note: what normalized growth did `CC(C)OC(=O)C(C)(C)Oc1ccc(C(=O)c2ccc(Cl)cc2)cc1` show?
## Output 0.974 (inactive)

## Input Bench note: what normalized growth did `CCOC(=O)C(C)(C)Oc1ccc(Cl)cc1` show?
## Output 1.01 (inactive)

## Input Bench note: what normalized growth did OCC(O)C(O)C(O)CO (stereo unspecified) show?
## Output 0.996 (inactive)

## Input Bench note: what normalized growth did `CCO/C=C1\SC(=S)N(CCc2ccccc2)C1=O` show?
## Output 0.736 (active)

## Input Bench note: what normalized growth did CC(C)CC(NC(=O)C(Cc1ccccc1)NC(=O)CNC(=O)CNC(=O)C(N)Cc1ccc(O)cc1)C(=O)O (stereo unspecified) show?
## Output 1 (inactive)

----------
Field: normalized growth. Provide a value for each of the compounds that follow.
test: chemical genetic growth profiling, strain panel (AID 1159580);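 also: tested at 20 µM; growth read once vehicle control cultures reached saturation at 30 °C; 1 = growth at the plate median or of vehicle wells; lower values mean less growth of the strain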; conditions: S. cerevisiae deletion strains, growth OD, locus YIL066C, strain RNR3, active compounds read low
About 2,000 (36%) of roughly 5,500 compounds were called active. Another 18% or so got no clear call; they are omitted. The list shows a part of the results.

## Input Bench note: what normalized growth did `CS(=O)(=O)c1ccc(C2=C(c3ccccc3)C(=O)OC2)cc1` show?
## Output 1.01 (inactive)

## Input Bench note: what normalized growth did CCN(CC)CCCC(C)Nc1ccnc2cc(Cl)ccc12 (stereo unspecified) show?
## Output 1.02 (inactive)

## Input Bench note: what normalized growth did C[C@]12CCC(=O)C=C1CCC1C2CC[C@@]2(C)C1CC[C@@H]2O (stereo partly specified) show?
## Output 1.01 (inactive)

## Input Bench note: what normalized growth did `O=C1C=CC(=C(c2ccc(O)cc2)c2ccc(O)cc2)C=C1` show?
## Output 0.992 (inactive)

## Input Bench note: what normalized growth did `CC(=O)OCC[N+](C)(C)C` show?
## Output 0.988 (inactive)

## Input Bench note: what normalized growth did `CC(=O)N[C@@H](CC(C)C)C(=O)O` show?
## Output 1.01 (inactive)

## Input Bench note: what normalized growth did `NC(=O)c1ccc[n+]([C@@H]2O[C@H](COP(=O)([O-])OP(=O)(O)OC[C@H]3O[C@@H](n4cnc5c(N)ncnc54)[C@H](O)[C@@H]3O)[C@@H](O)[C@H]2O)c1` show?
## Output 0.982 (inactive)

## Input Bench note: what normalized growth did `O=C(CC[N+](=O)[O-])OC[C@H]1O[C@@H](O)[C@H](OC(=O)CC[N+](=O)[O-])[C@@H](OC(=O)CC[N+](=O)[O-])[C@@H]1OC(=O)CC[N+](=O)[O-]` show?
## Output 1.04 (inactive)

## Input Bench note: what normalized growth did CCC(C)C(=O)O[C@H]1[C@H](O)C2C(CN3CC(C)CCC3[C@@]2(C)O)C2C[C@]34O[C@]5(O)C(OC(=O)C(C)(O)C(C)O)CC[C@@]3(C)C5C(OC(C)=O)[C@@H](OC(C)=O)C4[C@@]21O (stereo partly specified) show?
## Output 1.01 (inactive)

## Input Bench note: what normalized growth did `CN(C)CC/C=C1\c2ccccc2Sc2ccc(Cl)cc21` show?
## Output 0.854 (active)

## Input Bench note: what normalized growth did CC(N)C(=O)OC(C)(C)Cc1ccc(Cl)cc1 (stereo unspecified) show?
## Output 0.965 (inactive)

## Input Bench note: what normalized growth did `CC(C)OC(=O)C(C)(C)Oc1ccc(C(=O)c2ccc(Cl)cc2)cc1` show?
## Output 0.971 (inactive)

## Input Bench note: what normalized growth did `C[N+](C)(C)CCOC(N)=O` show?
## Output 1.02 (inactive)

## Input Bench note: what normalized growth did CC1CC2C3CC(F)C4=CC(=O)C=CC4(C)C3(F)C(O)CC2(C)C1(O)C(=O)CO (stereo unspecified) show?
## Output 1.04 (inactive)

## Input Bench note: what normalized growth did `O=C(O)c1cc2ccccc2[nH]1` show?
## Output 1.02 (inactive)

## Input Bench note: what normalized growth did CCOC(=O)C(=O)C1(C(=O)OCC)Oc2cc(OC)cc(OC)c2C(=O)C1c1ccccc1 (stereo unspecified) show?
## Output 0.983 (inactive)

## Input Bench note: what normalized growth did CCOC(=O)C1(O)Oc2cc(OC)cc(OC)c2C(=O)C1c1ccccc1 (stereo unspecified) show?
## Output 1 (inactive)

## Input Bench note: what normalized growth did CN1CCCN=C1COC(=O)C(O)(c1ccccc1)C1CCCCC1 (stereo unspecified) show?
## Output 1 (inactive)

## Input Bench note: what normalized growth did `CN1CCC(=C2c3ccccc3Sc3ccccc32)CC1` show?
## Output 1.01 (inactive)

## Input Bench note: what normalized growth did `CCOC(=O)C(C)(C)Oc1ccc(Cl)cc1` show?
## Output 1.01 (inactive)

## Input Bench note: what normalized growth did CC(N)CCCC(C)(C)O (stereo unspecified) show?
## Output 0.998 (inactive)

----------
assay: chemical genetic growth profiling, strain panel (AID 1159580);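 also: tested at 20 µM; growth read once vehicle control cultures reached saturation at 30 °C; 1 = growth at the plate median or of vehicle wells; lower values mean less growth of the strain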; details: S. cerevisiae deletion strains, growth OD, locus YBR023C, strain chs3
The whole screen tested about 5,500 compounds, of which about 2,000 (36%) were called active. Another 18% or so got no clear call; they are omitted. Rule as the data show it: active = normalized growth mostly below about 0.91 (no sharp cut-off); inconclusive = no clear call, values can overlap the other calls; inactive = mostly above about 0.92. This is one part of the list.
Write down one outcome, taken from active, inactive

## Input Per the records of this test, what outcome belongs to O=C(O)C1(O)C[C@@H](O)C(O)[C@H](O)C1 (stereo partly specified) ?
## Output inactive

## Input Per the records of this test, what outcome belongs to `NC(=O)c1ccc[n+]([C@@H]2O[C@H](COP(=O)([O-])OP(=O)(O)OC[C@H]3O[C@@H](n4cnc5c(N)ncnc54)[C@H](O)[C@@H]3O)[C@@H](O)[C@H]2O)c1` ?
## Output inactive

## Input Per the records of this test, what outcome belongs to `COc1cc(NS(=O)(=O)c2ccc(N)cc2)nc(OC)n1` ?
## Output inactive

## Input Per the records of this test, what outcome belongs to CC(NCCc1ccc(O)cc1)C(O)c1ccc(O)cc1 (stereo unspecified) ?
## Output inactive

## Input Per the records of this test, what outcome belongs to Cc1cccc(C)c1OCC(C)N (stereo unspecified) ?
## Output inactive

## Input Per the records of this test, what outcome belongs to CC(CCc1ccccc1)NC(C)C(O)c1ccc(O)cc1 (stereo unspecified) ?
## Output inactive

## Input Per the records of this test, what outcome belongs to COc1cc(NC(C)CCCN)c2ncccc2c1 (stereo unspecified) ?
## Output inactive

## Input Per the records of this test, what outcome belongs to OCCN1C[C@@H](O)[C@@H](O)C(O)C1CO (stereo partly specified) ?
## Output inactive

## Input Per the records of this test, what outcome belongs to `CC1(C)OC(=O)NC1=O` ?
## Output inactive

## Input Per the records of this test, what outcome belongs to NC(=O)C(c1ccccc1)(c1ccccc1)C1CCN(CCc2ccc3c(c2)CCO3)C1 (stereo unspecified) ?
## Output inactive

## Input Per the records of this test, what outcome belongs to `CN(C)c1ccc(C(=C2C=CC(=[N+](C)C)C=C2)c2ccc(N(C)C)cc2)cc1` ?
## Output active
